System: NCI-H460 lung
Assay: NCI tumour cell line growth inhibition, 48 h
// reported TGI for each item listed
OBSERVED PROPERTY: TGI

- COMPOUND: "O=C(Nc1ccc(N2CCNCC2)cn1)c1[nH]ncc1Nc1ncnc2sc3c(c12)CCC3"
  OBSERVED PROPERTY: "TGI"
  RESULT: "3.48 µM"
- COMPOUND: "O=c1[nH]c(=S)c2[nH]c(=O)n(-c3ccccc3)c2[nH]1"
  OBSERVED PROPERTY: "TGI"
  RESULT: "> 100 µM"
- COMPOUND: "Cc1ccc(C)c(C(=N)c2ccccc2Cc2ccccc2)c1"
  OBSERVED PROPERTY: "TGI"
  RESULT: "33.2 µM"
- COMPOUND: "Cc1ccc(NCc2nnc3c(-c4ccccc4)nc4ccccc4n23)cc1"
  OBSERVED PROPERTY: "TGI"
  RESULT: "> 100 µM"
- COMPOUND: "C=C1C(OCCO)OC2O[C@]3(C)CCC4[C@H](C)CCC1C24OO3 (stereo not given in full)"
  OBSERVED PROPERTY: "TGI"
  RESULT: "> 100 µM"
- COMPOUND: "N#CC12CC3(CCC1CCC1(C2)OCCO1)OCCO3 (stereo not given)"
  OBSERVED PROPERTY: "TGI"
  RESULT: "> 100 µM"
- COMPOUND: "CN1CCN(Cc2ccc(NC(=O)c3cncc(C#Cc4ncc5ccccn45)c3)cc2C(F)(F)F)CC1"
  OBSERVED PROPERTY: "TGI"
  RESULT: "3.86 µM"
- COMPOUND: "CC(=O)Nc1ccc2c3c(cc(O)c2c1)N(C(=O)CCCCCC(=O)Nc1ccc2c4c(cc(O)c2c1)N(C(=O)OC(C)(C)C)CC4CCl)CC3CCl (stereo not given)"
  OBSERVED PROPERTY: "TGI"
  RESULT: "> 21.2 µM"
- COMPOUND: "COC(=O)C1=C(O)C(C(=O)OC)[C@@]2(O)[C@@H](C(=O)OC)C(c3ccccc3Cl)C[C@@H]1[C@@H]2C(=O)OC (stereo not given in full)"
  OBSERVED PROPERTY: "TGI"
  RESULT: "> 100 µM"
- COMPOUND: "NNC(=O)CSc1nnc(CCCCCCCCc2nnc(SCC(=O)NN)o2)o1"
  OBSERVED PROPERTY: "TGI"
  RESULT: "> 100 µM"

---

Test system: U251 CNS
Experiment: NCI tumour cell line growth inhibition, 48 h
// reported TGI for each item listed

- MOLECULE: "Nc1ccc2c(c1)S(=O)(=O)c1cc(N)ccc1-2"
  TGI: "> 100 µM"
- MOLECULE: "CCN1C(=O)N(CC)C2C1NN=c1s/c(=C\\c3cnc(C)n3C)c(=O)n12 (stereo not given)"
  TGI: "> 100 µM"
- MOLECULE: "OCC(O)C(OC1OC(CO)C(O)C(O)C1O)c1nn(-c2ccc(Cl)cc2)c2nc3cc(Cl)ccc3nc12 (stereo not given)"
  TGI: "> 100 µM"
- MOLECULE: "CCOc1ccccc1NC(=O)C(=O)c1c(O)c2ccc(O)cc2oc1=O"
  TGI: "> 100 µM"
- MOLECULE: "COc1cc2c(cc1O)N=C[C@@H]1CCC(O)N1C2=O (mixture of isomers)"
  TGI: "1.71 µM"
- MOLECULE: "ClCCCN1CCCCC1CCl (stereo not given)"
  TGI: "> 100 µM"
- MOLECULE: "O=C(OCc1ccccc1)c1ccccc1-c1c2ccc(=O)cc-2oc2cc(OCc3ccccc3)ccc12"
  TGI: "13.9 µM"
- MOLECULE: "N#CC12CC3(CCC1CCC1(C2)OCCO1)OCCO3 (stereo not given)"
  TGI: "> 100 µM"
- MOLECULE: "COc1ccc2oc3c(ccc[n+]3C)c(=O)c2c1"
  TGI: "> 100 µM"
- MOLECULE: "O[C@H]1[C@@H]2OC[C@@H](O)[C@H](OCc3ccccc3)[C@@](COCc3ccccc3)(O2)[C@@H]1OCc1ccccc1"
  TGI: "30.4 µM"

---

System: MALME-3M melanoma
Assay: NCI tumour cell line growth inhibition, 48 h

- COMPOUND: "Nc1cc(N)c2nc(-c3ccccc3)c(Oc3ccc(Cl)c(Cl)c3)nc2c1"
  TGI: "37.4 µM"
- COMPOUND: "CC(=O)Nc1ccc2c3c(cc(O)c2c1)N(C(=O)CCCCCC(=O)Nc1ccc2c4c(cc(O)c2c1)N(C(=O)OC(C)(C)C)CC4CCl)CC3CCl (stereo not given)"
  TGI: "8.98 µM"
- COMPOUND: "CC(=O)c1cccc(NC(=O)/C(=N\\NC(=S)NN)C2C(=O)Nc3ccccc3S2=O)c1 (stereo not given)"
  TGI: "> 100 µM"
- COMPOUND: "COC1=CC(=O)C2C(C1=O)[C@@H]1c3ccccc3OC[C@H]21 (stereo not given in full)"
  TGI: "> 100 µM"
- COMPOUND: "Cc1cc(C)nc(NS(=O)(=O)c2ccc(NC(=O)c3ccc4nc5ccccc5c(Nc5ccc(S(=O)(=O)Nc6nc(C)cc(C)n6)cc5)c4c3)cc2)n1"
  TGI: "> 100 µM"
- COMPOUND: "O=C(OCc1ccccc1)c1ccccc1-c1c2ccc(=O)cc-2oc2cc(OCc3ccccc3)ccc12"
  TGI: "31.4 µM"
- COMPOUND: "Cc1ccc(SSCCCCS(=O)O)cc1"
  TGI: "69.7 µM"
- COMPOUND: "NCCNc1ncnc2ccc(Cl)cc12"
  TGI: "> 100 µM"
- COMPOUND: "CC(=O)Nc1ccc(OCC(O)CO)cc1 (stereo not given)"
  TGI: "> 100 µM"
- COMPOUND: "O=S1Cc2ccccc2CSS1 (stereo not given)"
  TGI: "26.2 µM"
- COMPOUND: "O=C(NC(Cc1ccccc1)P(=O)(O)c1ccccc1)OCc1ccccc1 (stereo not given)"
  TGI: "> 100 µM"
- COMPOUND: "O=C(CN1CCN(c2ccccn2)CC1)Nc1ccc(Cl)cc1C(=O)c1ccccc1Cl"
  TGI: "> 100 µM"
- COMPOUND: "CCCCCC/C(CC(=O)CCC(=O)NCCc1ccccc1)=N\\NC(=O)c1ccc2ccccc2c1O"
  TGI: "> 100 µM"
- COMPOUND: "Cc1c(C(=O)Nc2ccc(Cl)cc2)nc(N)nc1-c1cccc(Cl)c1"
  TGI: "> 100 µM"
- COMPOUND: "C#CC1(O)CC(c2ccccc2)N(C)C(c2ccccc2)C1 (stereo not given)"
  TGI: "> 100 µM"
- COMPOUND: "COc1cc2c3c(n(CCCN4CCN(CCO)CC4)c(=O)c2cc1OC)-c1cc2c(cc1C3=O)OCO2"
  TGI: "31 µM"
- COMPOUND: "COC(=O)c1ccccc1Nc1ccccc1C(=O)OC"
  TGI: "96.8 µM"
- COMPOUND: "O=C(O)CSc1nnc2c3ccccc3c3ccccc3c2n1"
  TGI: "> 100 µM"
- COMPOUND: "N#Cc1c(Nc2ccccc2)[n+]([O-])c2ccc(Cl)cc2[n+]1[O-]"
  TGI: "26.9 µM"
- COMPOUND: "Cc1ccc(S(=O)(=O)N/N=C2\\CC3C4CCC3C2C4)cc1 (stereo not given)"
  TGI: "> 100 µM"
- COMPOUND: "O=C1C=C(OCC=C(Cl)Cl)C(=O)c2ccccc21"
  TGI: "6.11 µM"
- COMPOUND: "Nc1ncnc2c1ncn2COC/C=C/I"
  TGI: "> 100 µM"
- COMPOUND: "Cc1cn(C2CC(O)C(Cn3nncc3Cn3ccc(=O)[nH]c3=O)O2)c(=O)[nH]c1=O (stereo not given)"
  TGI: "> 100 µM"
- COMPOUND: "C[C@]12CC[C@H]3[C@@H](CCC4=CC(=O)CC[C@@]43C)[C@@H]1CC[C@@H]2OC(=O)c1cccc2c(=O)c3ccccc3[nH]c12"
  TGI: "> 100 µM"
- COMPOUND: "C=[N+](CNC(=O)CNC(=O)C(Cc1ccccc1)NC(=O)OC(C)(C)C)C(=O)CNC(=O)C(Cc1ccccc1)NC(=O)OC(C)(C)C (stereo not given)"
  TGI: "> 100 µM"
- COMPOUND: "O=C1OC(=O)C2C1C1C(c3ccccc3)=C(c3ccccc3)C2(O)C2C(=O)OC(=O)C12 (stereo not given)"
  TGI: "> 100 µM"
- COMPOUND: "CC1(C)N=C(N)N=C(N)N1CCCCc1ccccc1"
  TGI: "83.4 µM"
- COMPOUND: "COC(=O)C(=O)C(C(=O)C(=O)Nc1nc(=S)[nH][nH]1)c1nc2ccc([N+](=O)[O-])cc2[nH]c1=O (stereo not given)"
  TGI: "> 100 µM"
- COMPOUND: "O=[N+]([O-])c1ccc2nc(=S)[nH]n2c1"
  TGI: "> 100 µM"
- COMPOUND: "CCCCCCC(=O)CC(=O)C(=O)Nc1ccccc1C"
  TGI: "> 100 µM"
- COMPOUND: "CCN1CCC(O)(/C=C/c2ccc(Cl)cc2)C(C(=O)/C=C/c2ccc(Cl)cc2)C1 (stereo not given)"
  TGI: "> 100 µM"
- COMPOUND: "NC1=CN(Cc2ccccc2)C2=N/C(=C\\c3ccco3)C(=O)N12"
  TGI: "> 100 µM"
- COMPOUND: "CC(C)[C@H]1NC(=O)[C@H]2N=C(O[C@@H]2C)[C@@H]2CCCN2C(=O)[C@H](Cc2ccccc2)NC(=O)[C@@H]2COC(=N2)[C@@H](Cc2ccccc2)NC(=O)[C@@H]2COC1=N2"
  TGI: "> 100 µM"
- COMPOUND: "Cc1cc2nc3c(C#N)c4c(c(Nc5ccc(Cl)cc5)n3c2cc1C)CCC4"
  TGI: "55 µM"
- COMPOUND: "CC(CNc1nc(Nc2ccc(Cl)c(Cl)c2)nc(C(Cl)(Cl)Cl)n1)N(C)C (stereo not given)"
  TGI: "3.79 µM"
- COMPOUND: "Nc1ncnc2c1ncn2C1OC(C(=O)OCCO)C(O)C1O (stereo not given)"
  TGI: "> 100 µM"
- COMPOUND: "CCOC(=O)C1C(=O)c2cccc(OC)c2C2COC(=O)N12 (stereo not given)"
  TGI: "> 100 µM"
- COMPOUND: "NC(=O)N=Nc1c2ccccc2n2[nH]ccc12"
  TGI: "> 100 µM"
- COMPOUND: "C[C@H](c1ccc(Cl)cc1[N+](=O)[O-])N1C(=O)c2cc(I)ccc2NC(=O)[C@H]1c1ccc(Cl)cc1"
  TGI: "> 100 µM"
- COMPOUND: "COc1cc2c(cc1O)N=C[C@@H]1CCC(O)N1C2=O (mixture of isomers)"
  TGI: "1.42 µM"
